Molecular target: T1, fibroblast activation protein (FAP) on FAP-expressing human WI-38 fibroblasts (human, UniProt Q12884 1-760)
T1 construct: also called human FAP
Test: competitive FACS, WI-38 cells, vs Cy5 tracer m3; A = pIC50 >8.0
Numbered stars: 1 amine (or outer) side, 2 acyl side, 3 side chain; on linkers, the order of the positions; unused ones are H or OH. Bridge positions count the residues as written; N and C are the ends. Square brackets hold non-standard residues; d marks the D form. * marks the point of attachment. tMeBn(DOTA-PP) = 1,3,5-trimethylbenzylidene, two thioethers to Cys, third CH2 bound to one N of piperazine whose other N bears DOTA, O=C(O)CN1CCN(CC(=O)O)CCN(CC(=O)N2CCN(Cc3cc(C[*:1])cc(C[*:2])c3)CC2)CCN(CC(=O)O)CC1; mXylylene = c1cc(C[*:1])cc(C[*:2])c1; αMeF = C[C@](N)(Cc1ccccc1)C(=O)O; Hexanoyl = CCCCCC(=O)*
assay-endpoint: pIC50 Category (FACS)

Known results for binders:
Ac-MCPPTEFCDH[αMeF]RD-NH2 (linker 2-8 via mXylylene; SMILES CSCC[C@H](NC(C)=O)C(=O)N[C@H]1CSCc2cccc(c2)CSC[C@@H](C(=O)N[C@@H](CC(=O)O)C(=O)N[C@@H](Cc2c[nH]cn2)C(=O)N[C@@](C)(Cc2ccccc2)C(=O)N[C@@H](CCCNC(=N)N)C(=O)N[C@@H](CC(=O)O)C(N)=O)NC(=O)[C@H](Cc2ccccc2)NC(=O)[C@H](CCC(=O)O)NC(=O)[C@H]([C@@H](C)O)NC(=O)[C@@H]2CCCN2C(=O)[C@@H]2CCCN2C1=O, also called 3BP-3203) [Ac-Met-[Cys(3MeBn)-Pro-Pro-Thr-Glu-Phe-Cys]-Asp-His-Amf-Arg-Asp-NH2] ... > 8 pIC50
Hexanoyl-CPPTQFCD-NH2 (linker 1-7 via tMeBn(DOTA-PP); SMILES CCCCCC(=O)N[C@H]1CSCc2cc(cc(CN3CCN(C(=O)CN4CCN(CC(=O)O)CCN(CC(=O)O)CCN(CC(=O)O)CC4)CC3)c2)CSC[C@@H](C(=O)N[C@@H](CC(=O)O)C(N)=O)NC(=O)[C@H](Cc2ccccc2)NC(=O)[C@H](CCC(N)=O)NC(=O)[C@H]([C@@H](C)O)NC(=O)[C@@H]2CCCN2C(=O)[C@@H]2CCCN2C1=O) [Hex-[Cys(tMeBn(DOTA-PP))-Pro-Pro-Thr-Gln-Phe-Cys]-Asp-NH2] ... > 8 pIC50

Note: attention shifts to another entry.
Data point: Hexanoyl-CPPTQFCD-NH2 (linker 1-7 via tMeBn(LuDOTA-PP); also: lutetium complex of DOTA, also called 3BP-3591) [Hex-[Cys(tMeBn(LuDOTA-PP))-Pro-Pro-Thr-Gln-Phe-Cys]-Asp-NH2] ; pIC50 Category (FACS) = > 8 pIC50
